# Tested on: Wnt pathway (TCF-dependent transcription in HEK293 luciferase reporter cell line with ER-DSH construct)
# experimentNotes: Cellular assay for Wnt pathway activity (luciferase reporter)
# Type: cell-based
# studyConditions: Homo sapiens; Wnt pathway inhibition, HEK293 luciferase reporter cells (ER-DSH, TCF promoter), 24 hours incubation, estrogen-induced
# Method: 1. Cellular Assay for Wnt Pathway Activity Compounds were tested for their Wnt pathway inhibitory activities using a luciferase reporter cell based assay. […] Compounds, in concentrations from 30 μM down to 1 nM, were incubated for 24 hours on the cells, which were induced for TCF-dependent transcription by the addition of estrogen (10). Luciferase activities were determined using the ONE GLO Luciferase Assay System (Promega) and the ENVISION microplate reader (Perkin Elmer). […]
Listed compounds paired with reported IC50

Below: 3 compounds and their reported IC50.
entrySmiles	reportedResult
CC(=O)N(C)CCN(C)c1cncc(Oc2ccc(-c3cc(N)ccn3)cc2)n1	200 to 1000 nM
CCc1ccc(C2=NN(C(=O)c3ccc(Oc4cncc(N(C)CCN(C)C(C)=O)n4)cc3)CCC2)cc1	1000 to 10000 nM
CC(=O)N(C)CCN(C)c1cncc(Oc2ccc(-c3ccnc4ccccc34)cc2)n1	< 200 nM

Entry CC(=O)N(C)CCN(C)c1cncc(Oc2ccc(-c3ncc(O)cn3)cc2)n1 — recorded IC50 = 1000 to 10000 nM

The reported IC50 of the compound CCOC(=O)c1cccc(Oc2cncc(N(C)CCN(C)C(C)=O)n2)c1 was 1000 to 10000 nM

Form: compound = CC(=O)N(C)CCN(C)c1cncc(Oc2ccc(-c3cccc(N4CCN(C)CC4)n3)cc2)n1 ; IC50 = < 200 nM

Summary for this compound, CC(=O)Nc1cccc(-c2ccc(Oc3cncc(N(C)CCN(C)C(C)=O)n3)cc2)n1 : IC50 is < 200 nM

IC50 measured on COc1ccc(-c2ccc(Oc3cncc(N(C)CCN(C)C(C)=O)n3)c(F)c2)nc1 = < 200 nM

---

The entries below are paired with their reported pIC50.
# Tested on: Wnt pathway (TCF-dependent transcription in HEK293 luciferase reporter cell line with ER-DSH construct)
# experimentNotes: Cellular assay for Wnt pathway activity (luciferase reporter)
# Assay type: cell-based
# studyConditions: Homo sapiens; Wnt pathway inhibition, HEK293 luciferase reporter cells (ER-DSH, TCF promoter), 24 hours incubation, estrogen-induced
pIC50: −log10 of the molar value.

Worked set:
compound	pIC50
CC(=O)N(C)CCN(C)c1cncc(Oc2ccc(-c3cccc(S(C)(=O)=O)n3)cc2)n1 [Compound 206]	> 6.70
CC(=O)N(C)CCN(C)c1cncc(Oc2ccc(-c3ccnnc3)cc2)n1 [Compound 261]	> 6.70
CC(=O)N(C)CCCc1cncc(Oc2ccc(-c3ccc(C)cn3)cc2F)n1 [Compound 268]	> 6.70

Quick note, pIC50 for CC(=O)N(C)CCNc1cncc(Oc2ccc(-c3ccc(CO)nc3)cc2)n1 [Compound 254] landed at 6.00 to 6.70

---

# Test system: Wnt pathway (TCF-dependent transcription in HEK293 luciferase reporter cell line with ER-DSH construct)
# experimentNotes: Cellular assay for Wnt pathway activity (luciferase reporter)
# Type: cell-based
# studyConditions: Homo sapiens; Wnt pathway inhibition, HEK293 luciferase reporter cells (ER-DSH, TCF promoter), 24 hours incubation, estrogen-induced
Parameter IC50: see the listing below.

Example entries and their recorded answers appear below.
compound	measuredParameter	reportedResult
CC(=O)N(C)CCN(C)c1cncc(Oc2ccc(-c3ccc(CO)nc3)cc2)n1	IC50	< 0.2 µM
CC(=O)N(CCN(c1cncc(Oc2ccc(F)cc2)n1)C(C)C)C(C)C	IC50	0.2 to 1 µM
CC(=O)N(C)CCN(C)c1cncc(Oc2cccc(C)c2)n1	IC50	1 to 10 µM
COc1ccc(Oc2cncc(N(C)CCN(C)C(C)=O)n2)c(F)c1	IC50	0.2 to 1 µM
CC(=O)N(C)CCN(C)c1cncc(Oc2ccc(-c3c(F)c(F)nc(F)c3F)cc2)n1	IC50	< 0.2 µM

IC50 in this record for CC(=O)N(C)CCCc1cncc(Oc2ccc(-c3ccncc3C#N)cc2)n1 : 0.2 to 1 µM

Memo: CC(=O)N(C)CCN(C)c1cncc(Oc2ccc(-c3ccc(CN)nc3)cc2)n1 , reported IC50: < 0.2 µM

response.value for CC(=O)N(C)CCN(C)c1cncc(Oc2ccc(Br)c(F)c2F)n1 (field: IC50) = 0.2 to 1 µM

---

# System: Wnt pathway (TCF-dependent transcription in HEK293 luciferase reporter cell line with ER-DSH construct)
# experimentNotes: Cellular assay for Wnt pathway activity (luciferase reporter)
# Format: cell-based
# studyConditions: Homo sapiens; Wnt pathway inhibition, HEK293 luciferase reporter cells (ER-DSH, TCF promoter), 24 hours incubation, estrogen-induced
pIC50: −log10 of the molar value.
pIC50 values for the compounds below.

Consider the following illustrative entries.
compound	reportedResult
CN(CCN1CCCCC1=O)c1cncc(Oc2ccc(F)cc2)n1 [Compound 116]	> 6.70
CCN(CCN(C)c1cncc(Oc2ccc(OC)cc2)n1)C(C)=O [Compound 77]	> 6.70
COc1ccc(Oc2cncc(N(C)CCN(C)C(=O)C(F)(F)F)n2)cc1 [Compound 79]	5.00 to 6.00

Per the record, NC(=O)CCNc1cncc(Oc2ccc(-c3ccc(CO)nc3)cc2)n1 [Compound 299] has pIC50 of 5.00 to 6.00

Measured pIC50, CC(=O)N(C)CCNc1cncc(Oc2ccc(-c3ccc(F)cn3)cc2)n1 [Compound 262] : 5.00 to 6.00

---

Measured IC50 values are reported for all entries that follow.
# Tested on: Wnt pathway (TCF-dependent transcription in HEK293 luciferase reporter cell line with ER-DSH construct)
# experimentNotes: Cellular assay for Wnt pathway activity (luciferase reporter)
# Assay type: cell-based
# studyConditions: Homo sapiens; Wnt pathway inhibition, HEK293 luciferase reporter cells (ER-DSH, TCF promoter), 24 hours incubation, estrogen-induced

Value of measured IC50 for the entry CC(=O)Nc1ccc(Oc2cncc(N(C)CCN(C)C(C)=O)n2)cc1 [Compound 94] : 200 to 1000 nM

Reported IC50 ( COc1ccc(Oc2cncc(N(C)CCNC(C)=O)n2)cc1 [Compound 59] ) = 200 to 1000 nM

IC50 recorded for this compound, CSc1ccc(Oc2cncc(N(C)CCN(C)C(C)=O)n2)cc1 [Compound 65] , is < 200 nM

Measured IC50, CC(=O)Nc1cccc(-c2ccc(Oc3cncc(CCCN(C)C(C)=O)n3)cc2)n1 [Compound 218] : 200 to 1000 nM

Consider CC(=O)N(C)CCN(C)c1cncc(Oc2ccc(-c3ccc(F)cn3)cc2F)n1 [Compound 226] . Its measured IC50 is < 200 nM

Value of measured IC50 for the entry CC(=O)Nc1cccc(-c2ccc(Oc3cncc(NCCN(C)C(C)=O)n3)c(F)c2)n1 [Compound 259] : 1000 to 10000 nM

Entry COc1ccc(Oc2cncc(NCC3CCCN(C(C)=O)C3)n2)cc1 (stereo not drawn) [Compound 38] , IC50 reported as 1000 to 10000 nM

IC50 reported for this compound CCOC(=O)c1ccc(Oc2cncc(N(C)CCN(C)C(C)=O)n2)cc1 [Compound 115] : 200 to 1000 nM

Query O=C1NCCN1CCNc1cncc(Oc2ccc(F)cc2)n1 [Compound 278] yields IC50 of 200 to 1000 nM

Please fill in: IC50 reported for CC(=O)N(C)CCN(C)c1cncc(Oc2ccc(Cl)c(Cl)c2)n1 [Compound 89] = 200 to 1000 nM

Just so you know, measured IC50 for CC(=O)N(C)CCNc1cncc(Oc2ccc(-c3ccc(CO)cn3)cc2)n1 [Compound 293] came out at 200 to 1000 nM

Field IC50 (entry CC(=O)NCC(C)Nc1cncc(Oc2ccc(F)cc2)n1 (stereo not drawn) [Compound 289] ) reads 1000 to 10000 nM

Form: compound = CC(=O)N(C)CCN(C)c1cncc(Oc2ccc(CCC#N)cc2)n1 [Compound 232] ; IC50 = < 200 nM

Documented IC50 of CC(=O)N(C)CCNc1cncc(Oc2ccc(-c3ccncc3C#N)cc2F)n1 [Compound 257] : 200 to 1000 nM

---

# Tested on: Wnt pathway (TCF-dependent transcription in HEK293 luciferase reporter cell line with ER-DSH construct)
# experimentNotes: Cellular assay for Wnt pathway activity (luciferase reporter)
# Type: cell-based
# studyConditions: Homo sapiens; Wnt pathway inhibition, HEK293 luciferase reporter cells (ER-DSH, TCF promoter), 24 hours incubation, estrogen-induced
pIC50: −log10 of the molar value.
The reader will find reported pIC50 values listed item by item below.

Sample answers from the record:
molecule	measuredParameter	reportedResult
CC(=O)N(C)CCCc1cncc(Oc2ccc(-c3ccncc3C#N)cc2F)n1 [Compound 266]	pIC50	> 6.70
COc1ccc(Oc2cncc(NCC3CCCN3C(C)=O)n2)cc1 (stereo not drawn) [Compound 57]	pIC50	5.00 to 6.00
Nc1cnc(-c2ccc(Oc3cncc(NCCN4CCCCC4=O)n3)cc2)cn1 [Compound 291]	pIC50	> 6.70
COc1cccc(Oc2cncc(N(C)CCN(C)C(C)=O)n2)c1 [Compound 41]	pIC50	5.00 to 6.00
Cc1ccc(-c2ccc(Oc3cncc(NCCC(N)=O)n3)cc2)nc1 [Compound 298]	pIC50	6.00 to 6.70

Sample CC(=O)N(C)CCCc1cncc(Oc2ccc(-c3cccc(N4CCN(C)CC4)n3)cc2)n1 [Compound 217] ; pIC50 observed: 6.00 to 6.70

Reported pIC50 of CC(=O)N(C)CCN(C)c1cncc(Oc2ccc(-c3cncc(C)c3)cc2)n1 [Compound 212] : 6.00 to 6.70

Field pIC50 (entry CC(=O)N(C)CCNc1cncc(Oc2ccc(-c3ccc(C)cn3)cc2)n1 [Compound 19] ) reads > 6.70

Short answer for CC(=O)N(C)CCN(C)c1cncc(Oc2ccc(C(=O)Nc3cccnc3)cc2)n1 [Compound 231] : pIC50 was > 6.70

Input CC(=O)N(C)CCNc1cncc(Oc2ccc(F)cc2)c1 [Compound 315] . Output pIC50: ≤ 5.00

pIC50 in this record for CC(=O)N(C)CCN(C)c1cncc(Oc2ccc(C(C)(C)C)cc2)n1 [Compound 85] : > 6.70

CC(=O)N(C)CCSc1cncc(Oc2ccc(F)cc2)n1 [Compound 136] has a reported pIC50 of > 6.70

GET /value?item= CC(=O)N1CCCC1CNc1cncc(Oc2ccc(F)cc2)n1 (stereo not drawn) [Compound 62] &field=pIC50 returns 5.00 to 6.00
